measured-on: human cloned CHRM4 receptor (M4_CHO cells) (Homo sapiens)
Construct: expressed in transfected cells; host or cells: CHO-K1
Sequence (P08173 whole entry): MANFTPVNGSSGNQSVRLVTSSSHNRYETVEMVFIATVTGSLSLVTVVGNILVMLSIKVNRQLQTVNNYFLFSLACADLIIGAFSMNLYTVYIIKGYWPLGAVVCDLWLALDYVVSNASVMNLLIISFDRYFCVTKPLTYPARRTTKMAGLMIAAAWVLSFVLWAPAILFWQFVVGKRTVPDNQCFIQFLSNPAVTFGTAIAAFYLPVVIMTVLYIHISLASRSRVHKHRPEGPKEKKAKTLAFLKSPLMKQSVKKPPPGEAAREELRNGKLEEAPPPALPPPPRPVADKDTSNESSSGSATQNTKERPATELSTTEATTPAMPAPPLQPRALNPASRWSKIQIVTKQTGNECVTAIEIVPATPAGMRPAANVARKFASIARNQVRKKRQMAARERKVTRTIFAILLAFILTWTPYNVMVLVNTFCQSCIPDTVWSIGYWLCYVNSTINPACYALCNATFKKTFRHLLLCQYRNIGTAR
assay-details: CHRM4 Ca++ Flux Assay (agonist mode, FDSS 7000EX)
Format: cell-based
assay-context: Percent Activity, read-out: M4 FDSS PA
Emax below 60% gives NOT MET; Emax at or above it gives MET.

// known answers, use as guide
[[record]]
molecule = "c1ccc(C2CCN([C@@H]3CCC4(C3)CN(c3nnco3)C4)CC2)c(CC2CCOCC2)c1"
measured_on = "human cloned CHRM4 receptor (M4_CHO cells) (Homo sapiens)"
assigned_label = "MET"

[[record]]
molecule = "COc1ccccc1C1CCN([C@@H]2CCC3(C2)CN(c2ccc(C)nc2)C3)CC1"
measured_on = "human cloned CHRM4 receptor (M4_CHO cells) (Homo sapiens)"
assigned_label = "NOT MET"

[[record]]
molecule = "O=C(N1CC2(CC[C@@H](N3CCC(c4ccccc4C4CCOCC4)CC3)C2)C1)C1(F)CC1"
measured_on = "human cloned CHRM4 receptor (M4_CHO cells) (Homo sapiens)"
assigned_label = "MET"


Identify whether the reported Emax of the following molecule is 60% or greater: COc1ccccc1C1CCN([C@@H]2CCC3(C2)CN(c2ccnnc2)C3)CC1
NOT MET

----------
measured-on: human cloned CHRM5 receptor (M5_CHO) (Homo sapiens, UniProt P08912)
Construct: expressed in transfected cells; host or cells: CHO (M5_CHO)
Sequence (P08912 1-532): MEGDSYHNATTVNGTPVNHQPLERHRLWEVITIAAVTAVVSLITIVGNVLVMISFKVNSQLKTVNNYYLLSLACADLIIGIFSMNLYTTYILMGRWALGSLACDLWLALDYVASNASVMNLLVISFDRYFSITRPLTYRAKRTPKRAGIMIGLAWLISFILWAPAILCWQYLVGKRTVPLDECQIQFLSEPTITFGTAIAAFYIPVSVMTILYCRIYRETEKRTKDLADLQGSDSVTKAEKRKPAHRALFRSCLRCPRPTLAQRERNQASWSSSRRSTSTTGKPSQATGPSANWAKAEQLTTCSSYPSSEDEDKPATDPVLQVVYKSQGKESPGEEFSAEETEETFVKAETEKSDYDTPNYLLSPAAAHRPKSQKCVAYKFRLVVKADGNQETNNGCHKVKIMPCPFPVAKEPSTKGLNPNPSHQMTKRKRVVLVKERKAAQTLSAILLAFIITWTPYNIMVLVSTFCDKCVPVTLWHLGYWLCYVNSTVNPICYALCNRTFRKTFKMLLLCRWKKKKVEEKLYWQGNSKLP
assay-details: CHRM5 Ca++ Flux Assay (agonist mode, FDSS 7000EX)
Assay type: cell-based
assay-context: Percent Activity measured to EC100 of Carbachol
Listing: M5 FDSS PA of selected compounds
Use % as the unit, but write only the number.

Quick one: M5 FDSS PA of COc1ccc(Cl)cc1C1CCN([C@H]2CCC3(C2)CN(C(=O)C2(F)CC2)C3)CC1 (single isomer, unassigned) [Example 8A] ?
0

Quick one: M5 FDSS PA of Fc1ccc(OC2CCOCC2)c(C2CCN([C@@H]3CCC4(C3)CN(c3cncnc3)C4)CC2)c1 (single isomer, unassigned) [Example 10G] ?
0

Quick one: M5 FDSS PA of FC(F)(F)Oc1ccccc1C1CCN([C@@H]2CCC3(C2)CN(c2nncs2)C3)CC1 (single isomer, unassigned) [Example 10N] ?
0

Quick one: M5 FDSS PA of Cc1ncc(COc2ccccc2C2CCN([C@@H]3CCC4(C3)CN(C(=O)C3(F)CC3)C4)CC2)o1 (single isomer, unassigned) [Example 7V] ?
0

Quick one: M5 FDSS PA of FC(F)(F)Oc1ccccc1C1CCN([C@@H]2CCC3(C2)CN(c2ncco2)C3)CC1 (single isomer, unassigned) [Example 10L] ?
2

Quick one: M5 FDSS PA of Fc1ccc(C2CCOCC2)c(C2CCN([C@@H]3CCC4(C3)CN(c3cncnc3)C4)CC2)c1 (single isomer, unassigned) [Example 10C] ?
0
